# assay.notes: compound effects on multiple myeloma cell viability – MM1S, calcein-AM fluorescence, 48 h, basal, profiling panel (AID 1165);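 note: viability of MM1S multiple myeloma cells under basal unstimulated conditions; test concentration not given here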
# settings: higher = more signal
observable: z-score
Write the value as a bare number.

structure_string=Cc1ccc(S[C@]2(C(=O)NCCCN(C)C)CC(=O)N(Cc3ccccc3C(F)(F)F)[C@@H]2c2ccc(CO)cc2I)cc1 observable=z-score measurement=-2.72
structure_string=COc1ccc([Si](C)(C)[C@H]2[C@H](CCO)O[C@@]3(C(=O)N(Cc4cccc(N5C(=O)c6ccccc6Oc6ccccc65)c4)c4ccccc43)[C@@H]2C)cc1 observable=z-score measurement=-2.87
structure_string=O=C1C[C@@](C(=O)O)(c2ccc([N+](=O)[O-])cc2)[C@@H](c2ccc(CO)cc2)N1C1CCCCC1 observable=z-score measurement=-1.43

# ---- query compound ----
Challenge: // Input: CN(C)C(=O)[C@@]1(Cc2ccccc2CN=[N+]=[N-])COC(c2ccc(OCCCO)cc2)=N1 . Output its z-score only.
Response given: -3.51

* * *

# assayed.target: Neurogenic locus notch homolog protein 3 (Homo sapiens)
# assay.notes: small molecules binding NOTCH3 protein – biochemical, 635/667 nm fluorescence, primary screen (AID 1096)
# settings: small-molecule microarray, 635 nm fluorescence, higher = more signal
Each entry below carries its recorded composite z-score.

molecule=C=C(COC)C(=O)CC[C@@H](OC(=O)c1ccccc1-c1ccccc1C(=O)O)c1ccc(OCCO)cc1 measurement=0.505
molecule="COc1ccc(C(O)C2C=CC3C(=O)N(C)C(=O)C3N2N(c2ccccc2)c2ccccc2)cc1 (configuration not stated)" measurement=0.791

Challenge: Consider the molecule COc1ccc([Si](C)(C)[C@@H]2[C@@H](CC(=O)N3CCC[C@H]3CO)O[C@]3(C(=O)N(Cc4cccc(N5CCCCC5=O)c4)c4ccccc43)[C@H]2C)cc1 . State its measured composite z-score.
Response given: 0.625

Challenge: Please indicate composite z-score recorded for CC(C)=CCCC=C(C)C(O)C1C=CC2C(=O)N(c3ccccc3)C(=O)C2N1Nc1ccc(C#N)cc1 (configuration not stated)
Response given: 1.01

Challenge: Please report composite z-score for the following molecule: O=C1[C@@H]2[C@@H](CC(COc3ccccc3)=C([C@H](O)CCc3ccccc3)[C@@H]2CO)C(=O)N1Cc1ccccc1
Response given: 0.453

Challenge: Provide one value: measured composite z-score of COC(=O)C(CC#Cc1ccc2c(c1)[C@]1(C(=O)N2)[C@H](c2ccccc2OCCO)N2[C@H](c3ccccc3)[C@H](c3ccccc3)OC(=O)[C@H]2[C@@H]1C(=O)N1CCc2cc(OC)c(OC)cc2C1)C(=O)OC
Response given: 1.09

Challenge: Query composite z-score for CCOC(=O)c1cn(C[C@H](Cc2ccccc2)NC(=O)N[C@H](CO)CCc2oc(C(C)=O)c(C(=O)OC)c2C(=O)OC)nn1
Response given: 1.08

* * *

Each item that follows carries a reported composite z-score.
# assayed.target: Fibroblast growth factor 2 (Homo sapiens) (UniProt P09038)
# Sequence (P09038 whole entry, looked up): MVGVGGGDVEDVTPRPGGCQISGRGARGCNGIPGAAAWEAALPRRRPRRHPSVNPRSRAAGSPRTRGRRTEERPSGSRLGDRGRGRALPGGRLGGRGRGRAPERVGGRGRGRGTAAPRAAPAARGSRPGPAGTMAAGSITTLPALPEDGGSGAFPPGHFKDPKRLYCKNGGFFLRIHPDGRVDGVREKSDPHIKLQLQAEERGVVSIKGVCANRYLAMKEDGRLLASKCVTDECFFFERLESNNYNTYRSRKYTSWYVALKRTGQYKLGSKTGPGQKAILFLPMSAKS
# assay.notes: basic fibroblast growth factor binding to printed compounds – biochemical, small-molecule microarray, 635/667 nm fluorescence, primary screen (AID 1133)
# settings: FGF2, fluorescence 635/667, higher = more signal
Give the value as a plain number.

molecule=NC(=O)NCC#Cc1ccc2c(c1)[C@]1(C(=O)N2)[C@H](c2ccc(OCCO)cc2)N2[C@H](c3ccccc3)[C@H](c3ccccc3)OC(=O)[C@H]2[C@@H]1C(=O)O observable="composite z-score" measurement=-0.498
molecule=O=C(NCCN1CCOCC1)[C@@H]1c2ccccc2C(=O)N(Cc2ccc(OC(F)(F)F)cc2)[C@H]1c1ccc(CO)cc1 observable="composite z-score" measurement=-1.23
molecule="CC(C)C(O)C1C=CC2C(=O)NC(=O)C2N1Nc1ccccn1 (centres undefined)" observable="composite z-score" measurement=0.0205

Challenge: State its composite z-score for this molecule: O=C1O[C@H](c2ccccc2)[C@H](c2ccccc2)N2[C@H]1[C@@H](C(=O)O)[C@]1(C(=O)Nc3ccc(C#CCCO)cc31)[C@H]2c1ccc(OCCO)cc1
Response given: 1.16

* * *

# assay.notes: plasmodial surface anion channel blockers, osmotic lysis – cell-based, P. falciparum Indochina, OD700, 1 h, primary screen (AID 1154)
# settings: P. falciparum Indochina infected RBC osmotic lysis, called active from +8 up or from −8 down
Calls of active or inactive are those of the source.
Please reply with one of these outcomes: active, inactive

Use the examples below as a reference point.
compound=COc1ccccc1CN1C(=O)c2ccccc2[C@](Cc2ccccc2I)(C(=O)NCC(C)C)[C@@H]1c1ccc(CO)cc1 category=inactive
compound=COCCCNC(=O)[C@@]1(CCC(=O)OC(C)(C)C)COC(c2ccc(OCCCO)cc2)=N1 category=active
compound="CCCCN1CC=CC23O[C@@H]4/C=C\\CCCOC(=O)C4[C@H]2C(=O)N(C(CO)C(C)C)[C@@H]3C1=O (some centres undefined)" category=inactive
compound=C=CCOC(=O)[C@@H]1[C@H]2C(=O)O[C@H](c3ccccc3)[C@H](c3ccccc3)N2[C@H](c2ccc(OCCOC(=O)[C@H]3C[C@H]4C(=O)NCC(=O)N4[C@H]3c3cccc(OCCO)c3)cc2)[C@@]12C(=O)Nc1ccc(I)cc12 category=inactive
compound=CCCN1C(=O)[C@]2(CCC(=O)OC(C)(C)C)N=C(c3ccc(OCCCO)cc3)O[C@@H]2c2ccccc21 category=active

Challenge: What is the recorded call for this compound in the test? CN(C)c1ccc(C(O)C2C=CC3C(=O)N(Cc4ccccc4)C(=O)C3N2n2cnnc2)cc1 (centres undefined)
Response given: inactive

Challenge: So what was the verdict on CC1CC/C=C\[C@H]2OC34C=CCN(CCN5CCOCC5)C(=O)[C@H]3N(CCCO)C(=O)[C@@H]4C2C(=O)O1 (some centres undefined) in this test?
Response given: inactive

* * *

# assay.notes: compound effects on hepatocellular carcinoma cell viability – HepG2, calcein-AM fluorescence, 48 h, basal, profiling panel (AID 1164); note: test concentration not given here
# settings: higher = more signal
observable: z-score
Keep it simple and answer with nothing but the number.

Challenge: Using the record for CC(=O)c1ccc(C(O)C2C=CC3C(=O)N(c4ccccc4)C(=O)C3N2Nc2ccc(C(C)C)cc2)cc1 (centres undefined) , state its measured z-score.
Response given: 0.123

Challenge: Give the reported value of z-score for this record: CCOC(=O)C1=CC[C@@H](c2ccc(OC)cc2)N(S(=O)(=O)c2ccc(C)cc2)[C@H]1c1ccc(C)cc1
Response given: 0.65

Challenge: Quickly give me recorded z-score for COCCOC(=O)N1C(=O)[C@@]2(c3cc(C#CCCO)ccc31)[C@H](c1ccccc1OCCO)N1[C@H](c3ccccc3)[C@H](c3ccccc3)OC(=O)[C@H]1[C@@H]2C(N)=O
Response given: -0.112

* * *

# assay.notes: blockers of DNA damage checkpoint Chk1 activation – imaging, HeLa, hydroxyurea, phospho-Chk1 antibody, percent positive cells, primary screen (AID 1186)
# settings: hydroxyurea-induced phospho-Chk1 immunofluorescence imaging, higher = more signal
Decide using z-score: a value greater than or equal to -0.04 is YES, a smaller one is NO.

compound=N#Cc1ccc(-c2cccc(=O)o2)cc1 category=YES
compound="C=CCC(OC(C)=O)[C@@H]1[C@@H](N(Cc2cccc3ccccc23)C(=O)c2ccc(-c3ccccc3)cc2)c2cc(OCCCO)ccc2N1C(=O)Cc1ccc2ccccc2c1 (some centres not stated)" category=YES
compound=CN(C)CCCC[C@@H]1NC(=O)[C@@H]2C[C@H](C(=O)NCCCCCCNC(=O)CS)[C@H](c3ccc(O)cc3)N2C1=O category=NO
compound=CC1=C([C@H](O)CCc2ccccc2)[C@H](CO)n2c(=O)n(-c3ccccc3)c(=O)n2C1 category=NO
compound=COCCOC(=O)N1C(=O)[C@@]2(c3ccccc31)[C@H](c1ccc(O)cc1)N1[C@H](c3ccccc3)[C@H](c3ccccc3)OC(=O)[C@H]1[C@@H]2C(=O)N1CCCCCCC1 category=NO
compound=COC(=O)C(CC#Cc1ccc2c(c1)[C@]1(C(=O)N2)[C@H](C(=O)NC[C@H](O)c2ccccc2)[C@H]2C(=O)O[C@H](c3ccccc3)[C@H](c3ccccc3)N2[C@@H]1c1ccccc1OCCO)C(=O)OC category=YES

Challenge: Dear colleague, could you confirm whether CN(C)CCCNC(=O)[C@@H]1c2ccccc2C(=O)N(Cc2ccccc2C(F)(F)F)[C@H]1c1ccc(CO)cc1 has z-score at or above -0.04?
Response given: NO

* * *

# System: glycogen synthase kinase-3 (GSK3A per assay name; protocol says GSK3B)
# assay.notes: compounds binding glycogen synthase kinase-3 – biochemical, small-molecule microarray, 635 nm fluorescence, GSK3A, primary screen (AID 1103); note: the record names both GSK3A and GSK3B
# settings: fluorescence 635 nm, higher = more signal
Parameter threshold = 0.06. Response is Fulfilled when composite z-score meets or exceeds it, else Not fulfilled.

Challenge: Could you tell me if the measured composite z-score of CCC(CC)C(O)C1C=CC2C(=O)N(c3ccccc3)C(=O)C2N1Nc1ccccc1F (stereo not drawn) reaches 0.06 or more?
Response given: Fulfilled

Challenge: Reported composite z-score reaches at least 0.06 for CCCNC(=O)[C@@]1(Sc2ccc(C)cc2)CC(=O)N(Cc2ccccc2Cl)[C@@H]1c1ccc(CO)cc1I ?
Response given: Not fulfilled

Challenge: Determine whether measured composite z-score meets or exceeds 0.06 for C=C(CCCC)C(=O)CC[C@H](OC(=O)c1ccccc1-c1ccccc1C(=O)O)c1ccc(OCCO)cc1
Response given: Fulfilled

Challenge: # bool: composite z-score of CN(C)CCCCNC(=O)[C@H]1C[C@H]2C(=O)N3CCC[C@H]3C(=O)N2[C@H]1c1cccc(OCCO)c1 >= 0.06
Response given: Fulfilled
